Molecular target: Histamine H3 receptor (Cavia porcellus, UniProt Q9JI35)
Sequence (Q9JI35 whole entry): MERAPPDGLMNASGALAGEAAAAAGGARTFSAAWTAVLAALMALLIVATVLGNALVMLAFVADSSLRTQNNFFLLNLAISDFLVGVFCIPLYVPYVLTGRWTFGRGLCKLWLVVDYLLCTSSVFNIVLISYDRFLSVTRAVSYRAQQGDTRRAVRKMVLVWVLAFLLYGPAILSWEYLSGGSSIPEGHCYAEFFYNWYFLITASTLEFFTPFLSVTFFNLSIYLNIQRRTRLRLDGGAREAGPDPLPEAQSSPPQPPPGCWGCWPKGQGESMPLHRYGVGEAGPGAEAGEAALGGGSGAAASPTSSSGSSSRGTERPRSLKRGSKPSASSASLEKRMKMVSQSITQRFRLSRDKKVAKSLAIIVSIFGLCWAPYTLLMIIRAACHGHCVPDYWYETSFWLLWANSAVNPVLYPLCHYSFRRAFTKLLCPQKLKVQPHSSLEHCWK
Test: ileal longitudinal muscle, myenteric plexus functional assay (rightward shift of R-(α)-methylhistamine E/[A] curves, Schild)
Format: cell-based
Set-up: the longitudinal muscle layer and adhering myenteric plexus was teased away; from tissue; host or cells: guinea pig ileal longitudinal muscle with myenteric plexus (organ bath)
Conditions: guinea pig ileum longitudinal muscle myenteric plexus, electrically stimulated; antagonism of R-(α)-methylhistamine; typical variance ±0.15 log units; read-out: pKB (functional assay) - ileum (converted)
parameter_measured: Kb (nM)

{"compound": "O=S(=O)(CC(O)CCCc1c[nH]cn1)NCCc1ccc(Cl)cc1 (centres unmarked)", "readout_number": 49}
{"compound": "O=S(=O)(CC(O)CCCCc1c[nH]cn1)NCc1ccc(Cl)cc1 (centres unmarked)", "readout_number": 12.6}
{"compound": "O=S(=O)(CC(O)CCCc1c[nH]cn1)NCC1CCCCC1 (centres unmarked)", "readout_number": 389}

[1] O=S(=O)(CCCCCc1c[nH]cn1)NCc1ccc(Cl)cc1
[2] O=S(=O)(CCCCCc1c[nH]cn1)NCc1cccc(Cl)c1
Req: Between these two entries, 1 and 2 , state which has the higher Kb. Reply with the label of the item you choose.
Resp: 2

====

Target: Histamine H3 receptor (Cavia porcellus)
Assay: Histamine H3 radioligand binding assay, guinea pig ileum ([3H]-R-α-methylhistamine)
Design: The cortex was dissected, weighed and homogenised in ice-cold 20 mM Hepes-NaOH buffer; from tissue; host or cells: guinea pig cerebral cortex membranes
Conditions: guinea pig ileum longitudinal muscle myenteric plexus membranes; [3H]-R-α-methylhistamine 3 nM; typical variance ±0.12 log units; read-out: pKI (binding assay) - ileum (converted)
parameter_measured: Ki (nM)

Answered cases to consult:
{"molecule": "O=S(=O)(CC(O)CCCc1c[nH]cn1)NCc1ccc(Cl)cc1 (stereo not shown) [Example 6]", "result_unit": "nM", "Ki": 12.6}
{"molecule": "O=S(=O)(CCCCc1c[nH]cn1)NCc1ccc(Cl)cc1 [Example 1]", "result_unit": "nM", "Ki": 8.51}
{"molecule": "O=S(=O)(CCCCCc1c[nH]cn1)NCc1ccc(Cl)cc1 [Example 5]", "result_unit": "nM", "Ki": 1.86}
{"molecule": "O=S(=O)(/C=C/CCc1c[nH]cn1)NCc1ccc(Cl)cc1 [Example 3]", "result_unit": "nM", "Ki": 10.2}

[P] O=S(=O)(CC(O)CCCc1c[nH]cn1)NCCc1ccc(Cl)cc1 (stereo not shown) [Example 12]
[Q] O=S(=O)(CCCCCc1c[nH]cn1)CCc1ccc(Cl)cc1 [Example 26]
Req: For the pair P and Q , which member has the lower Ki number? Reply with the label of the item you choose.
Resp: Q
(Q: 10.2 nM, P: 60.3 nM)

====

Molecular target: Histamine H3 receptor (Cavia porcellus, UniProt Q9JI35)
Test: Histamine H3 radioligand binding assay, guinea pig cortex ([3H]-R-α-methylhistamine)
Design: The cortex was dissected, weighed and homogenised in ice-cold 20 mM Hepes-NaOH buffer; from tissue; host or cells: guinea pig cerebral cortex membranes
Settings: guinea pig cortex membranes; [3H]-R-α-methylhistamine 0.1 nM; typical variance ±0.12 log units; read-out: pKI (binding assay) - cortex (converted)
parameter_measured: Ki (nM)

{"compound": "O=S(=O)(CC(O)CCCCc1c[nH]cn1)NCc1ccc(Cl)cc1 (stereo not drawn)", "Ki, nM": 4.27}
{"compound": "O=S(=O)(CCCCCc1c[nH]cn1)CCc1ccc(Cl)cc1", "Ki, nM": 4.47}
{"compound": "O=S(=O)(/C=C/CCc1c[nH]cn1)NCc1ccc(Cl)cc1", "Ki, nM": 2.75}
{"compound": "O=S(=O)(CC(O)CCc1c[nH]cn1)NCCc1ccc(Cl)cc1 (stereo not drawn)", "Ki, nM": 741}
{"compound": "O=S(=O)(CC(O)CCCc1c[nH]cn1)NCc1cccc(Cl)c1 (stereo not drawn)", "Ki, nM": 28.8}

[1] O=S(=O)(CCCCCc1c[nH]cn1)NCC1CCCCC1
[2] O=S(=O)(CCCCCc1c[nH]cn1)NCc1ccc(Br)cc1
[3] O=S(=O)(CCCCCc1c[nH]cn1)N(Cc1ccccc1)Cc1ccc(Cl)cc1
Req: Arrange items by their Ki values in increasing order. Kindly provide the labels arranged according to the requested ordering.
Resp: 2, 1, 3
